# condition_set: siRNA; note: test system not given here
HELM strings list units from the 5' end as sugar, base in round brackets, then linkage (d deoxyribose, r ribose, m 2'-O-methyl, p phosphodiester). Strings are as the collection lists them, not checked against the first reports. ss, as = sense and antisense strand; [lna] = locked nucleic acid (LNA); [una] = unlocked nucleic acid; [fl2r] = 2'-fluoro
In this section we review reported target mRNA knockdown values for a set of substances.
Form entry: value (%) — number only.

Problem: Consider the substance RNA1{r(G)p.r(C)p.[fl2r](U)p.r(G)p.[fl2r](U)p.r(A)p.r(A)p.r(C)p.r(C)p.r(U)p.r(C)p.r(G)p.r(G)p.r(A)p.r(G)p.r(A)p.r(G)p.r(U)p.r(U)p.r(T)p.r(T)}|RNA2{r(A)p.r(A)p.r(C)p.r(U)p.r(C)p.r(U)p.r(C)p.r(C)p.r(G)p.r(A)p.r(G)p.r(G)p.r(U)p.[fl2r](U)p.r(A)p.[fl2r](C)p.r(A)p.r(G)p.r(C)p.r(T)p.r(T)}$$$RNA1{StrandType:ss}|RNA2{StrandType:as}$ and give its recorded target mRNA knockdown.
Solution: 62

Problem: Quickly give me recorded target mRNA knockdown for RNA1{r(C)p.r(U)p.r(U)p.r(A)p.r(C)p.r(G)p.r(C)p.r(U)p.r(G)p.r(A)p.r(G)p.r(U)p.r(A)p.r(C)p.r(U)p.r(U)p.r(C)p.r(G)p.r(A)p.r(T)p.r(T)}|RNA2{r(U)p.r(C)p.[lna](G)p.r(A)p.r(A)p.r(G)p.r(U)p.r(A)p.r(C)p.r(U)p.r(C)p.r(A)p.r(G)p.r(C)p.r(G)p.r(U)p.r(A)p.r(A)p.r(G)p.r(T)p.r(T)}$$$RNA1{StrandType:ss}|RNA2{StrandType:as}$
Solution: 82

Others:
Problem: State, in one line, measured target mRNA knockdown of RNA1{r(G)p.r(U)p.r(A)p.r(U)p.r(G)p.r(A)p.r(C)p.r(C)p.r(G)p.r(A)p.r(C)p.r(U)p.r(A)p.r(C)p.r(G)p.r(C)p.r(G)p.r(U)p.r(A)p.r(T)p.r(T)}|RNA2{r(U)p.r(U)p.r(C)p.r(A)p.r(G)p.r(U)p.r(G)p.r(U)p.r(G)p.[una](A)p.r(U)p.r(G)p.r(A)p.r(C)p.r(A)p.r(C)p.r(U)p.r(U)p.r(G)p.r(T)p.r(T)}$$$RNA1{StrandType:ss}|RNA2{StrandType:as}$
Solution: 23
